Data provenance is patent US11667602B2.

# TEST PROTOCOL: Human Liver Microsomal Stability (Test C)
# Format: in vitro ADME
# RUN PARAMETERS: human, liver microsomes
microsomal CLint by entry:
MEASURE: microsomal CLint (µL/min/mg)

[[record]]
compound_structure = "COc1cc(C#N)c(O[C@H]2CC[C@@](C)(C(=O)O)CC2)cc1C(=O)N[C@@H]1[C@H]2CC[C@H](C2)[C@@H]1C(=O)NCC1(F)CCCC1"
output_unit = "µL/min/mg"
experimental_value = 8.4

[[record]]
compound_structure = "COc1cc(F)c(O[C@H]2CC[C@@H](C(=O)O)CC2)cc1C(=O)N[C@@H]1[C@H]2CC[C@H](C2)[C@@H]1C(=O)Nc1cccc(S(F)(F)(F)(F)F)c1"
output_unit = "µL/min/mg"
experimental_value = 34

[[record]]
compound_structure = "COc1cc(F)c(O[C@H]2CC[C@@H](C(=O)O)CC2)cc1C(=O)N[C@@H]1[C@H]2CC[C@H](C2)[C@@H]1C(=O)Nc1ccc(C#N)c(Br)c1"
output_unit = "µL/min/mg"
experimental_value = 29

[[record]]
compound_structure = "CCCC1(CNC(=O)[C@H]2[C@@H]3CC[C@@H](C3)[C@H]2NC(=O)c2cc(O[C@H]3CC[C@@](C)(C(=O)O)CC3)c(C#N)cc2OC)CCC1"
output_unit = "µL/min/mg"
experimental_value = 130

[[record]]
compound_structure = "COc1cc(F)c(O[C@H]2CC[C@@H](C(=O)O)CC2)cc1C(=O)N[C@@H]1[C@H]2CC[C@H](C2)[C@@H]1C(=O)Nc1cc(F)cc(C(F)(F)F)c1"
output_unit = "µL/min/mg"
experimental_value = 22

[[record]]
compound_structure = "COc1cc(F)c(O[C@H]2CC[C@@](C)(C(=O)O)CC2)cc1C(=O)N[C@@H]1CCC[C@@H]1C(=O)NCC1(C)CCCCC1"
output_unit = "µL/min/mg"
experimental_value = 74


====

# SYSTEM NAME: human RXFP1 (Homo sapiens)
# Sequence (Q9HBX9 whole entry): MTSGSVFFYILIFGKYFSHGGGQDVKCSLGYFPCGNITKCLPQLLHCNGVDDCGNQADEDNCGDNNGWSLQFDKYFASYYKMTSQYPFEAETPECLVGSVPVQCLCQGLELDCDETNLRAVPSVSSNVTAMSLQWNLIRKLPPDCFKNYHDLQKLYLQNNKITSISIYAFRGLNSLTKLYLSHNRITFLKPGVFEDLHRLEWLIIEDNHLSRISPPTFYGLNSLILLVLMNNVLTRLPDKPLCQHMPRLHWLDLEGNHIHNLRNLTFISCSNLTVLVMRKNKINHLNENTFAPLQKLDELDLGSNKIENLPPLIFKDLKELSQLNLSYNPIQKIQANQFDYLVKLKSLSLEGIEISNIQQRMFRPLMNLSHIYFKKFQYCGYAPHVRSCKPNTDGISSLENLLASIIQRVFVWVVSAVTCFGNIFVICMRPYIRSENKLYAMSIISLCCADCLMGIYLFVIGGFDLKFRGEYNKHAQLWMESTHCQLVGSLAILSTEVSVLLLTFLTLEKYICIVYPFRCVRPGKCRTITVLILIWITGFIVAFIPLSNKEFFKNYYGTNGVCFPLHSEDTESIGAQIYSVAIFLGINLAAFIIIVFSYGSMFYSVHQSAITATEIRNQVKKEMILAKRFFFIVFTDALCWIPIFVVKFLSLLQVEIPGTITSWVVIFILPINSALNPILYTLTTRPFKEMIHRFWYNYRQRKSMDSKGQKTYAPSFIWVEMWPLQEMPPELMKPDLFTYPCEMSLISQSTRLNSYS
# TEST PROTOCOL: RXFP1 Hu cAMP (Test A)
# Type: cell-based
# Set-up: expressed in transfected cells; host or cells: Jump-In T-REx CHO-K1 cells (ThermoFisher), induced with 10 ng/ml doxycycline for 24 h
# RUN PARAMETERS: RXFP1 Hu cAMP; read-out: Test A EC50
EC50 for assorted compounds
MEASURE: EC50

[[record]]
compound = "COc1cc(F)c(-c2cccc(C(=O)O)n2)cc1C(=O)N[C@H]1[C@@H](C(=O)Nc2cccc(S(=O)(=O)C(F)(F)F)c2)[C@@H]2C=C[C@H]1C2 (racemic)"
system_name = "human RXFP1 (Homo sapiens)"
measure = "EC50"
experimental_value = "> 40000 nM"

[[record]]
compound = "COc1cc(F)c(O[C@H]2CC[C@@H](C(=O)O)CC2)cc1C(=O)N[C@@H]1[C@H]2CC[C@H](C2)[C@@H]1C(=O)Nc1cccc(S(F)(F)(F)(F)F)c1"
system_name = "human RXFP1 (Homo sapiens)"
measure = "EC50"
experimental_value = "19 nM"

[[record]]
compound = "COc1cc(C#N)c(O[C@H]2CC[C@@](C)(C(=O)O)CC2)cc1C(=O)Nc1cc(C)ccc1C(=O)NCC1(F)CCC1"
system_name = "human RXFP1 (Homo sapiens)"
measure = "EC50"
experimental_value = "980 nM"

[[record]]
compound = "COc1cc(F)c(O[C@H]2CC[C@@](C)(C(=O)O)CC2)cc1C(=O)N[C@@H]1CCC[C@@H]1C(=O)N[C@@H](C)C1(C)CC1 (racemic)"
system_name = "human RXFP1 (Homo sapiens)"
measure = "EC50"
experimental_value = "> 50000 nM"

[[record]]
compound = "COc1cc(C#N)c(O[C@H]2CC[C@@](C)(C(=O)O)CC2)cc1C(=O)Nc1cc(Cl)ccc1C(=O)NC12CC(C1)C2"
system_name = "human RXFP1 (Homo sapiens)"
measure = "EC50"
experimental_value = "130 nM"

[[record]]
compound = "CCC1(CNC(=O)[C@H]2[C@@H]3CC[C@@H](C3)[C@H]2NC(=O)c2cc(O[C@H]3CC[C@@](C)(C(=O)O)CC3)c(C#N)cc2OC)CCC1"
system_name = "human RXFP1 (Homo sapiens)"
measure = "EC50"
experimental_value = "20 nM"

[[record]]
compound = "COc1cc(F)c(O[C@H]2CC[C@@](C)(C(=O)O)CC2)cc1C(=O)N[C@@H]1COC[C@@H]1C(=O)Nc1ccc(F)c(S(F)(F)(F)(F)F)c1 (racemic)"
system_name = "human RXFP1 (Homo sapiens)"
measure = "EC50"
experimental_value = "34 nM"

[[record]]
compound = "COc1cc(F)c(O[C@H]2CC[C@@H](C(=O)O)CC2)cc1C(=O)N[C@@H]1[C@H]2CC[C@H](C2)[C@@H]1C(=O)Nc1cccc(C(F)(F)F)c1"
system_name = "human RXFP1 (Homo sapiens)"
measure = "EC50"
experimental_value = "62 nM"

[[record]]
compound = "COc1cc(F)c(O[C@H]2CC[C@@H](C(=O)O)CC2)cc1C(=O)NC1C(C(=O)NCCCC(F)(F)F)[C@@H]2CC[C@H]1C2 (stereo partly shown)"
system_name = "human RXFP1 (Homo sapiens)"
measure = "EC50"
experimental_value = "> 5900 nM"

[[record]]
compound = "COc1cc(F)c(O[C@H]2CC[C@@](C)(C(=O)O)CC2)cc1C(=O)N[C@@H]1CCN(C(C)=O)C[C@@H]1C(=O)Nc1cccc(S(=O)(=O)C(F)(F)F)c1 (racemic)"
system_name = "human RXFP1 (Homo sapiens)"
measure = "EC50"
experimental_value = "> 40000 nM"

[[record]]
compound = "COc1cc(F)c(O[C@H]2CC[C@@H](C(=O)O)CC2)cc1C(=O)N[C@@H]1CCC[C@@H]1C(=O)Nc1cccc(S(=O)(=O)C(F)(F)F)c1"
system_name = "human RXFP1 (Homo sapiens)"
measure = "EC50"
experimental_value = "300 nM"

[[record]]
compound = "COc1cc(C#N)c(O[C@H]2CC[C@@](C)(C(=O)O)CC2)cc1C(=O)N[C@H]1[C@@H](C(=O)NCC2(C)CCC2)[C@H]2C=C[C@@H]1CC2 (racemic)"
system_name = "human RXFP1 (Homo sapiens)"
measure = "EC50"
experimental_value = "36 nM"

[[record]]
compound = "CC[C@]1(C(=O)O)CC[C@@H](Oc2cc(C(=O)N[C@@H]3[C@H]4CC[C@H](C4)[C@@H]3C(=O)NCC(C)(C)C)c(OC)cc2F)CC1"
system_name = "human RXFP1 (Homo sapiens)"
measure = "EC50"
experimental_value = "70 nM"

[[record]]
compound = "COc1cc(F)c(O[C@@H]2CC[C@H](C(=O)O)OC2)cc1C(=O)NC1[C@H]2CC[C@H](C2)[C@@H]1C(=O)Nc1cccc(S(=O)(=O)C(F)(F)F)c1 (mixture of isomers)"
system_name = "human RXFP1 (Homo sapiens)"
measure = "EC50"
experimental_value = "580 nM"

[[record]]
compound = "COc1cc(C#N)c(O[C@H]2CC[C@@](C)(C(=O)O)CC2)cc1C(=O)Nc1cc(C)ccc1C(=O)N[C@H](C)C(C)C"
system_name = "human RXFP1 (Homo sapiens)"
measure = "EC50"
experimental_value = "190 nM"

[[record]]
compound = "COc1cc(F)c(-c2ccc(C(=O)O)s2)cc1C(=O)N[C@H]1[C@@H](C(=O)Nc2cccc(S(=O)(=O)C(F)(F)F)c2)[C@@H]2C=C[C@H]1C2 (racemic)"
system_name = "human RXFP1 (Homo sapiens)"
measure = "EC50"
experimental_value = "300 nM"

[[record]]
compound = "COc1cc(F)c(OC2CC(CC(=O)O)C2)cc1C(=O)NC1C2CCC(C2)C1C(=O)Nc1cccc(S(=O)(=O)C(F)(F)F)c1 (stereo not shown)"
system_name = "human RXFP1 (Homo sapiens)"
measure = "EC50"
experimental_value = "650 nM"

[[record]]
compound = "COc1cc(F)c(-c2ccc(C(=O)O)cc2)cc1C(=O)N[C@H]1[C@@H](C(=O)Nc2ccc(F)c(S(=O)(=O)C(F)(F)F)c2)[C@@H]2C=C[C@H]1C2 (racemic)"
system_name = "human RXFP1 (Homo sapiens)"
measure = "EC50"
experimental_value = "220 nM"

[[record]]
compound = "COc1cc(F)c(O[C@H]2CC[C@@H](C(=O)O)CC2)cc1C(=O)N[C@@H]1[C@H]2CC[C@H](C2)[C@@H]1C(=O)Nc1ccc(S(=O)(=O)C(F)(F)F)cc1"
system_name = "human RXFP1 (Homo sapiens)"
measure = "EC50"
experimental_value = "420 nM"

[[record]]
compound = "COc1cc(F)c(-c2ccc(C(=O)O)cc2)cc1C(=O)N[C@@H]1[C@H]2CC[C@H](C2)[C@@H]1C(=O)Nc1ccc(S(F)(F)(F)(F)F)cc1"
system_name = "human RXFP1 (Homo sapiens)"
measure = "EC50"
experimental_value = "> 3600 nM"

[[record]]
compound = "COc1cc(F)c(O[C@H]2CC[C@@](C)(C(=O)O)CC2)cc1C(=O)N[C@@H]1[C@H](O)CC[C@@H]1C(=O)Nc1cccc(S(=O)(=O)C(F)(F)F)c1 (racemic)"
system_name = "human RXFP1 (Homo sapiens)"
measure = "EC50"
experimental_value = "640 nM"

[[record]]
compound = "COc1cc(F)c(O[C@H]2CC[C@@](C)(C(=O)O)CC2)cc1C(=O)N[C@H]1[C@@H](C(=O)Nc2cccc(S(=O)(=O)C(F)(F)F)c2)CC[C@H]1OC (racemic)"
system_name = "human RXFP1 (Homo sapiens)"
measure = "EC50"
experimental_value = "> 40000 nM"

